Biological target: recombinant human GR (Homo sapiens, UniProt P04150)
Sequence (P04150 whole entry): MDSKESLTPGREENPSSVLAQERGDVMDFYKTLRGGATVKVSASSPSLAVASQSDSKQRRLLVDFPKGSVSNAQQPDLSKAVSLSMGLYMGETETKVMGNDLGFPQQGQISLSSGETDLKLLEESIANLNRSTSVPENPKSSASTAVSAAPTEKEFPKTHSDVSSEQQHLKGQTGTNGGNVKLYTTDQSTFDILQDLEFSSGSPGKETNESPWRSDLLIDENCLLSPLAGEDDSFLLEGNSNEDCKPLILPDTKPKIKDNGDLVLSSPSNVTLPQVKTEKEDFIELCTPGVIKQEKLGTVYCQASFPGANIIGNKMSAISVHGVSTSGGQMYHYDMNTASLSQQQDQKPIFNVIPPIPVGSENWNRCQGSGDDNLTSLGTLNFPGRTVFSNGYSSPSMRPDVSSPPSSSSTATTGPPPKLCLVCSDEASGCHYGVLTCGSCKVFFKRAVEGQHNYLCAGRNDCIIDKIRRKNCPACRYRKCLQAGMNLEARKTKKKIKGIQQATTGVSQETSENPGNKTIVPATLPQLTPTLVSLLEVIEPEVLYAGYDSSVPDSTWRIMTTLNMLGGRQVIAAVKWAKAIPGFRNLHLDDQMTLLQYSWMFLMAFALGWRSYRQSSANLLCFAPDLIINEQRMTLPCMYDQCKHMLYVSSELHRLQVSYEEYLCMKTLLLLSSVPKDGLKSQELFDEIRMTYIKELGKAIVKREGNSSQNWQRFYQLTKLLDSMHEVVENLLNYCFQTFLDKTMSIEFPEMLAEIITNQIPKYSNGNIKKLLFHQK
Test: Human Glucocorticoid Receptor (GR) Assay (fluorescence polarization competition, Panvera/Invitrogen kit)
Conditions: GS Red Fluoromone tracer, 2 hours at room temperature, 100% control 10 μM Dexamethasone, read-out: Inhibition of GR binding, IC50
property label: IC50 (nM)

C[C@]12Cc3cnn(-c4ccc(F)nc4)c3C=C1CC[C@H]1[C@@H]3CC[C@](OC(=O)C4CC4)(C(=O)OCC#N)[C@@]3(C)C[C@H](O)[C@@]12F 1.4

(1) C[C@H]1C[C@@H]2[C@H]([C@@H](O)C[C@@]3(C)[C@H]2CC[C@]3(OC(=O)c2cocn2)C(=O)SCF)[C@@]2(C)Cc3cnn(-c4ccc(F)nc4)c3C=C12
(2) C[C@@H]1C[C@H]2[C@@H]3CCC4=Cc5c(cnn5-c5ccc(F)nc5)C[C@]4(C)[C@@]3(F)[C@@H](O)C[C@]2(C)[C@@]1(OC(=O)c1cocn1)C(=O)SCF
Query: Pick one, 1 or 2 : lowest reported IC50. Please respond with the label that marks your chosen entry.
Result: 1
